B1: TRIM43 (parent)
chain: NRFRVEISFHFEVTNHNIRLFEDV

# Variants of: B1
# assay_protocol: protein stability index of a GFP-peptide fusion (GPS, HEK-293T) (PSI 1-6); higher = more stable;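 also: lentivirally expressed fusions sorted by FACS into six bins by GFP to DsRed ratio, PSI derived from sequencing read proportions per bin multiplied by bin number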
# reported_conditions: c terminus: a fixed tail appended
parameter_measured: protein stability index
# answer = number (no unit)

Consider the reported protein stability index for these variants:
variant_spec	parameter_measured	value
R19I	protein stability index	2.06
I7P	protein stability index	1.81

# protein stability index lookup, item H10Q 4.08

Param item = N15C ; retrieve measured protein stability index. 3.41

Need protein stability index of R19H , thanks. 3.79

Requested read-out: protein stability index. Entry: N15V 2.13

Endpoint output: protein stability index of I18S . Value? 2.35

Value lookup for protein stability index; key = V13M 2.35
